# PROCEDURE TEXT: yeast display, Sf9 membrane polyspecificity reagent, FACS + sequencing; frameworks hold sequencing errors
EXPERIMENTAL READOUT: polyreactivity (PSR sort gate)

Completed entries (count: 8):
{"SEQUENCE RECORD": "QVQLVESGGGLFQAGGSLRLSCAASGYTFPLYDMGWYRQAPGKERELVADINIGGASTYYADSVKGRFTISRDNAKNTVNLQMNSLKPEDTAVYYCAKEYNDGYFPTFDYDYWGQGTQVTVSS", "EXPERIMENTAL READOUT": "polyreactivity (PSR sort gate)", "READOUT VALUE": "low polyreactivity"}
{"SEQUENCE RECORD": "QVQLVESGGGLVQAGGSLRLSCAASGSIFRGYAMGWYRQAPGKEREFVASITWSAGRTRYADSVKGRFTISRDNAKNTVYLQMNSLKPEDTAVYYCAADHGSYWPRYDYWGQGTQVTVSS", "EXPERIMENTAL READOUT": "polyreactivity (PSR sort gate)", "READOUT VALUE": "high polyreactivity"}
{"SEQUENCE RECORD": "QVQLVESGGGLVQAGGSLRLSCAASGITFNTYAMGWYRQAPGKERELVAVITWSDGGTYYADSVKGRFTISRDNAKNTVYLQMNSLKPEDTAVYYCAADYYWGYDYWGQGTQVTVSS", "EXPERIMENTAL READOUT": "polyreactivity (PSR sort gate)", "READOUT VALUE": "low polyreactivity"}
{"SEQUENCE RECORD": "QVQLVESGGGLVQAGGSLRLSCAASGRIFAGYTMGWYRQAPGKERELVAAISWSGGRTYYADSVKGRFTISRDNAKYTVYLQMNSLKPEDTAVYYCNKVGWYHNYYYWGQGTQVTVSS", "EXPERIMENTAL READOUT": "polyreactivity (PSR sort gate)", "READOUT VALUE": "high polyreactivity"}
{"SEQUENCE RECORD": "KVQLVESGGGLVQAGGSLRLSCAASGRIFVGYAMGWYRQAPGKERELVAAINRSGSSTYYADSVKGRFTISRYNAKNTVYLQMNSLKPEDTAVYYCNARSGKRYGPRYDYWGQGTQVNVSS", "EXPERIMENTAL READOUT": "polyreactivity (PSR sort gate)", "READOUT VALUE": "high polyreactivity"}
{"SEQUENCE RECORD": "QVQLVESGGGLVQAGGSLRLSCAASGSTFIGNAMGWYRQAPGKERELVAAITRSGGSTFYADSVKGRFTISRDNAKNTVYLQMNSLKPEDTAVYYCAAKGNPYRVPGSSYPKVNYWGQGTQVTVSS", "EXPERIMENTAL READOUT": "polyreactivity (PSR sort gate)", "READOUT VALUE": "high polyreactivity"}
{"SEQUENCE RECORD": "QVQLVESGGGLVQAGGSLRLSCAASGRTFTPYTMGWYRQAPGKEREFVAAITVRGGSTYYADSVKGRFTISRDNAKNTVYLQMNSLKPEDTAVYYCAASYVSYRKRDDYWGQGTQVTVSS", "EXPERIMENTAL READOUT": "polyreactivity (PSR sort gate)", "READOUT VALUE": "high polyreactivity"}
{"SEQUENCE RECORD": "QVQLVESGGGLVQAGGSLSLICAASGSTILYNTMGWYRQAPGKERELVATITSRGDRTYYADSVKGRFTISRDNAKNTVYLQMNSLKPDDTAVYYCNAYGGNYPQSYRYYYWGQGTQVTVSS", "EXPERIMENTAL READOUT": "polyreactivity (PSR sort gate)", "READOUT VALUE": "low polyreactivity"}

Each sequence below has a reported value. Please supply its polyreactivity (PSR sort gate).
1. QVQLVESGGGLVQAGGSLRLSCAASGRTFVYYVMGWYRQAPGKERELVAGISRGGSTDYADSVKGRFTISRDNAKNTVYLQMNSLKPEDTAVYYCNRLLRRHLYIFYYWGQGTQVTVSS
2. QVQLVESVGGLVQAGGSLRLSCAASVYAMGWYRPAPGKERELVAAITDSGSTNYADSVKGRFTISRDNAKNTVYLQMNSLKPEDNAVYYCNADPYYATGSWARLPLYQYDYWGPGTQVTVSS
3. QVQLVESGGGLVQAGGSLRLSCAASGFIFRSYDMGWYRQAPGKERELVAAITRGGRTYYADSVKGRFTISRDNAKNTVYLQMNSLKPEDTAVYYCAARGTHVADGYYWGQGTQVTVSS
4. QVQLVYSGGGLVQAGGSLSLSCAASGSTIDGYAMGWYRQAPGKERELVAAISSSGASTYYADSVKGRFTISRDNAKNTVYLQMNSLKPEDTAVYYCNRVTCQQKNDYWGQGTQVTVSS
5. QVQLVESGGGLVQAGGSLRLSCAASGRTSVIYAMGWYRKAPGKERELVASIRRGGSTSYADSVKGRFTISRDNAKNTVYLQMNSLKPEDTAVYYCAARKRSVYGTEYDYWGQGTQVTVSS
6. QVQLVESGGGLVQAGGSLRLSCAASGSIFYRYAMGWYRQAPGKERELVAAITSTGSRTFYADSVKVRFTISRDNAKNTVYLQMNSLKPEDTAVYYCAADARYNGYHGVDYWGQGTLVTVSS

high polyreactivity
low polyreactivity
high polyreactivity
high polyreactivity
high polyreactivity
high polyreactivity

* * *

# PROCEDURE TEXT: yeast display, Sf9 membrane polyspecificity reagent, FACS + sequencing; frameworks hold sequencing errors
EXPERIMENTAL READOUT: polyreactivity (PSR sort gate)

Completed entries (count: 5):
{"SEQUENCE RECORD": "QVQLVESRGGLVQAGGSLRLSCAASGSTFFYNAMGWYRQAPGKEREFVAAITNGVITNYADSVKGRFTISRDNAKNTVYLQMNSLKPEDTAVYYCAALRWSPRSRYQYNYWGQGTQVTVSS", "polyreactivity (PSR sort gate)": "high polyreactivity"}
{"SEQUENCE RECORD": "QVQLVESGGGLVQAGGSLRLSCAGSGSTFRYYVLGWYRAAPGKDRVLVARITSAASTNYADSVKGRFTISRDNAKTTVNLQMNSLKPEDTPVYYCAADAYWIRSRFLYRIRYNYWGQGTQVTVSS", "polyreactivity (PSR sort gate)": "high polyreactivity"}
{"SEQUENCE RECORD": "QVQLVESGGGLVQAGGSLRLSCAASGRIFLANAMGWSRQAPGKERELVAAISLSGGRTYYADSVKGRFTISRDNAKNTVYLQMNSLKPEDTAVYYCAAEFYPIRYYGGYDYWGQGTLVTVSS", "polyreactivity (PSR sort gate)": "low polyreactivity"}
{"SEQUENCE RECORD": "QVQHVESGVGLVQAGGSLRLSCAASGSTFSWYTMGWYRQAPGKERELVAAISWSGGRTYYADSVKGRFTISRDNAKNTVYLQMNSLKPEDTAVYYCAAYDYWYSLGDYQFYYWGQGTQVTVSS", "polyreactivity (PSR sort gate)": "low polyreactivity"}
{"SEQUENCE RECORD": "QVQLVESGGGLVQAGGSLRLSCAASGFTFRVYAMGWYRHAPGKERELVAAITKRGGSTYYADSVKGRFTISRDNAKNTVYLQMNSLKPEDTAVYYCAAVNVRHFSYWGQGTQVTVSS", "polyreactivity (PSR sort gate)": "high polyreactivity"}

Each sequence below has a reported value. Please supply its polyreactivity (PSR sort gate).
1. QVQLVESGGGLVQAGGSLRLSCAASGNAMGWYRQAPGKERELVASINRSGGRTYYADSVKGRFTISRDNAKNTVYLQMISLKPEDTAVYYCGARPHYDSDYWGQGTQVTVSS
2. QVHLVESGGGLVQAGGSLRLSCAASGRIFFPNAMGWYRQAPGKERELVAGISIGGSTKYADSVKGRFTISRDNAKNTVYLQMNSLKPEDTAVYYCAAGRGRHTYNYWGQGTQVTVSS
3. QVQLVESGGGLVQSGGSLRLSCAASGYIFGYYAMGWYRQAPGKERELVAAITGTDDTNYADSVKGRFTISRDNAKNTVYLQMNSLIPEDTAVYYCAAYSWWNEYDYWGQGTQVTVSS
4. QVQLVESGGGLVQAGGSLRLSCAASGSTFWLYVMGWYRQAPGKERELVAAISSSGGRTYYADSVKGRFTISRDNAKNTVYLQMNSLKPEDTAVYYCNKYGTALWRYYYWGQGTQVTVSS
5. QVQLVESAGGLVQAGVSLRLSCAASGFTFAQNVMGWYRQAPGKERELVAAISVSGGSTYYADSVKGRFTISRDNAKNTVYLQMNSLKPEDTAVYYCNAVAGVTKRVDLSRSGYWGLGTQVTVSS
6. QVQLVESGGGLVQAVGSLRLSCADSGTFPYYAMGRYRQAPWKERELVAAITRSGTRTYYADSVKGRFTISRDNAKNTGYLQMKSLKPEDTAVYYCAARQTGFSSQFRGYYSWGQGTQVTVSS
7. QVQLVESGGGLVQAGGSLRLTCGASGRIFRGYAMGCSRQAPGKERELVASISGGDSTYADSVKGRYTISRDNAKNTVYLQINSLKPEDTSVYYWAASSWYPALREYWGQGTQVSVSS

1. low polyreactivity
2. low polyreactivity
3. high polyreactivity
4. high polyreactivity
5. high polyreactivity
6. high polyreactivity
7. low polyreactivity

Provenance of the data: the nanobody polyreactivity screen of Harvey et al. (2022)
